Where do these numbers come from? They come from patent US9745299B2.

target.entity: CDK1/CyclinB (Homo sapiens, UniProt P06493)
Construct: purchased Millipore, Billerica, Mass., USA
Sequence (P06493 whole entry): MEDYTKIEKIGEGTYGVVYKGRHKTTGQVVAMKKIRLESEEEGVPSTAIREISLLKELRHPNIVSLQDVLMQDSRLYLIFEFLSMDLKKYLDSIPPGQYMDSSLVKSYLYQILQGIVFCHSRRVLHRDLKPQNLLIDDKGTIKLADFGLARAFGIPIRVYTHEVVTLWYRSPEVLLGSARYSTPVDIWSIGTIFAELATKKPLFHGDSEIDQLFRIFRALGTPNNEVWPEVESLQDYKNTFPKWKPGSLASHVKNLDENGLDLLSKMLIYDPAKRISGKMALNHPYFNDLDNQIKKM
Sequence (P14635 whole entry partner): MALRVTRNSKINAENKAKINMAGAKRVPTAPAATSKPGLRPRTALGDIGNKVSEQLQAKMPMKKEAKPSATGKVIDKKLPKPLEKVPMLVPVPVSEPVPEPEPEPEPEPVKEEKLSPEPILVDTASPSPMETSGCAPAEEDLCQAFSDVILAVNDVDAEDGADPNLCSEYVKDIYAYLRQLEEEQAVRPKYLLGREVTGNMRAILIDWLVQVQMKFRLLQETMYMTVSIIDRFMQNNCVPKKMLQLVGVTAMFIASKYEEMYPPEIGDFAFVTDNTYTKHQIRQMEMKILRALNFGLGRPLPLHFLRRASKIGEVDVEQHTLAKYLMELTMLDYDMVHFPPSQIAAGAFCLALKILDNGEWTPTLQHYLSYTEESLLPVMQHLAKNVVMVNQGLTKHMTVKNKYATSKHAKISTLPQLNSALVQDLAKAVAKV
assay.explanation: ADP-Glo Kinase Assay, CDK1/CyclinB; note: ATP at apparent Km (20 µM)
Type: biochemical
particulars: read-out: % inhibition at 1 μM CDK1/CyclinB
recorded.metric: inhibition at 1 µM (%)

Solved entries:
CN1CCN(c2nc3c(Br)c(Br)c(Br)c4c3n2CCC4)CC1 ... 7
CCN(CC)c1nc2c(Br)c(Br)c(Br)c3c2n1CCC3 ... 0
NCCCNc1nc2c(Br)c(Br)c(Br)c3c2n1CCC3 ... 0

I. CC1CN(c2nc3c(Br)c(Br)c(Br)c4c3n2CCC4)CCN1 (stereo not drawn)
II. Brc1c(Br)c2c3c(nc(N4CCCCC4)n3CCC2)c1Br
*Q* Between the entries labeled I and II , whose measured inhibition at 1 µM is lower? Please respond with the label that marks your chosen entry.
*A* II

I. Cc1c(Br)c2c3c(nc(N4CCNCC4)n3CCC2)c1Br
II. O=[N+]([O-])c1c(Br)c(Br)c2c3c1nc(N1CCNCC1)n3CCC2
*Q* Between the entries labeled I and II , whose measured inhibition at 1 µM is lower? Please respond with the label that marks your chosen entry.
*A* I
(I: 7%, II: 15%)

* * *

target.entity: CDK9/CyclinT (Homo sapiens, UniProt P50750)
Construct: purchased Proqinase, Freiburg, Germany
Sequence (P50750 whole entry): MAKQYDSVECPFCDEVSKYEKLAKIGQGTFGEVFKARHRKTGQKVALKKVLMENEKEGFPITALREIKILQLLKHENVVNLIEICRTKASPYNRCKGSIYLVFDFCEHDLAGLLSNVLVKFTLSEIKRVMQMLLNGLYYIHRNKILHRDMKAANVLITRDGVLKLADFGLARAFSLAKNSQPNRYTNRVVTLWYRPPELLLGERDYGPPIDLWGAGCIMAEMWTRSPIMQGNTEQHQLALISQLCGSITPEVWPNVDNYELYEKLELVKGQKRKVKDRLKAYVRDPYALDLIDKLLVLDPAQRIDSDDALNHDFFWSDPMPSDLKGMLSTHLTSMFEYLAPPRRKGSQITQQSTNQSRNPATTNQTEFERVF
Sequence (O60563 whole entry partner): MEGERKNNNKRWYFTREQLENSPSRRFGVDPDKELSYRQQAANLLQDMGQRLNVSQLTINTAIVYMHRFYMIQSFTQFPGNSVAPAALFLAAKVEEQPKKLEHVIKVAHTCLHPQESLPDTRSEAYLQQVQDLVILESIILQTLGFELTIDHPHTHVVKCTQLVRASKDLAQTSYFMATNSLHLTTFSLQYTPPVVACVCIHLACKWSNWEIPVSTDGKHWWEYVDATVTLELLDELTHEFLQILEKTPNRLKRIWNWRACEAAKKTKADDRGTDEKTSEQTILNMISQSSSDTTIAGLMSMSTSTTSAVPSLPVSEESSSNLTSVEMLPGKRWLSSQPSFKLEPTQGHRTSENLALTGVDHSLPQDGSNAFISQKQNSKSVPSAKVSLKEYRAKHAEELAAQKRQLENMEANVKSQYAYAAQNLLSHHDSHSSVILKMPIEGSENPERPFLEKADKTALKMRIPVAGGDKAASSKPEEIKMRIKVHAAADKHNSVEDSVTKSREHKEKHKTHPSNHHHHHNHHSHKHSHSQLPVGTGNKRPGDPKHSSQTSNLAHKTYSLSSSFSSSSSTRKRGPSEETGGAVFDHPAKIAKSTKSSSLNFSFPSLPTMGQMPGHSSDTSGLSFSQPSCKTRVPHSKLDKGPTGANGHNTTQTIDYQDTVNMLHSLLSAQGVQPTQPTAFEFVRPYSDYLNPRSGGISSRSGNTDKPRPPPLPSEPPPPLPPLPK
assay.explanation: ADP-Glo Kinase Assay, CDK9/CyclinT; note: ATP at apparent Km (26 µM)
Type: biochemical
particulars: read-out: % inhibition at 1 μM CDK9/CyclinT
Experimental: Testing of the compounds described in this invention was carried out using the ADP-Glo™ Kinase Assay from Promega Corporation (Madison, Wis., USA). The ADP-Glo™ Kinase Assay is a luminescent ADP detection assay to measure kinase activity by quantifying the amount of ADP produced during a kinase reaction. The kinase assay is performed in kinase assay buffer (5 mM MOPS, pH 7.5, 5 mM MgCl2, 0.4 mM EDTA, 1.5 mM DTT). […]
Structures can show the parent of a compound that is named as a salt.
recorded.metric: inhibition at 1 µM (%)

Solved entries:
Cc1c(Br)c(Br)c2c3c1nc(C1CCN(C)CC1)n3CCC2 [Example 7A, hydrochloride] ... 19
OC1CCN(c2nc3c(Br)c(Br)c(Br)c4c3n2CCC4)CC1 [Example 3A] ... 1
CC1CCCN1c1nc2c(I)c(Br)c(Br)c3c2n1CCC3 (centres unmarked) [Example 3S] ... 16

a. NCCNc1nc2c(I)c(Br)c(Br)c3c2n1CCC3 [Example 1W]
b. Brc1c(Br)c2c3c(nc(N[C@H]4CCCNC4)n3CCC2)c1Br [Example 1AW]
c. NCC1CCCN1c1nc2c(Br)c(Br)c(Br)c3c2n1CCC3 (centres unmarked) [Example 1H]
*Q* Would you mind ranking these molecules by ascending inhibition at 1 µM? Answer by naming the labels in the order asked.
*A* c, a, b

* * *

target.entity: CDK8/CyclinC (Homo sapiens)
Construct: purchased ProQinase, Freiburg, Germany
assay.explanation: ADP-Glo Kinase Assay, CDK8/CyclinC; note: ATP at apparent Km (53 µM)
Format: biochemical
particulars: read-out: % inhibition at 1 μM CDK8/CyclinC
Experimental: Testing of the compounds described in this invention was carried out using the ADP-Glo™ Kinase Assay from Promega Corporation (Madison, Wis., USA). The ADP-Glo™ Kinase Assay is a luminescent ADP detection assay to measure kinase activity by quantifying the amount of ADP produced during a kinase reaction. The kinase assay is performed in kinase assay buffer (5 mM MOPS, pH 7.5, 5 mM MgCl2, 0.4 mM EDTA, 1.5 mM DTT). […]
recorded.metric: inhibition at 1 µM (%)

Solved entries:
Nc1nc2c(Br)c(Br)c(Br)c3c2n1CCC3 [Example 3J] ... 58
O[C@H]1CCN(c2nc3c(Br)c(Br)c(Br)c4c3n2CCC4)C1 [Example 3AN] ... 85
Brc1c(Br)c2c3c(nc(N4CCNCC4)n3CCC2)c1I [Example 1Y] ... 100
CCN(CC)c1nc2c(C)c(Br)c(Br)c3c2n1CCC3 [Example 3AP] ... 81
Cc1c(Br)c(Br)c2c3c1nc(C1CCN(C(C)C)CC1)n3CCC2 [Example 7D] ... 66
CN1CCN(c2nc3c(I)c(Br)c(Br)c4c3n2CCC4)CC1 [Example 3AM] ... 100
Brc1cc2nc(N3CCNCC3)n3c2c(c1Br)CCC3 [Example 1N] ... 49
CC1CCCN1c1nc2c(Br)c(Br)c(Br)c3c2n1CCC3 (stereo not shown) [Example 3R] ... 100

1. Cc1c(Br)c(Br)c2c3c1nc(N1CCOCC1)n3CCC2 [Example 3AU]
2. Brc1c(Br)c2c3c(nc(Nc4ccncc4)n3CCC2)c1Br [Example 3B]
*Q* Hi team, can someone confirm which has the larger inhibition at 1 µM: 1 or 2 ? Thanks. Please respond with the label that marks your chosen entry.
*A* 1
(1: 76%, 2: 45%)

* * *

target.entity: CDK7/CyclinH/MAT1 (Homo sapiens, UniProt P50613)
Construct: purchased Millipore, Billerica, Mass., USA
Sequence (P50613 whole entry): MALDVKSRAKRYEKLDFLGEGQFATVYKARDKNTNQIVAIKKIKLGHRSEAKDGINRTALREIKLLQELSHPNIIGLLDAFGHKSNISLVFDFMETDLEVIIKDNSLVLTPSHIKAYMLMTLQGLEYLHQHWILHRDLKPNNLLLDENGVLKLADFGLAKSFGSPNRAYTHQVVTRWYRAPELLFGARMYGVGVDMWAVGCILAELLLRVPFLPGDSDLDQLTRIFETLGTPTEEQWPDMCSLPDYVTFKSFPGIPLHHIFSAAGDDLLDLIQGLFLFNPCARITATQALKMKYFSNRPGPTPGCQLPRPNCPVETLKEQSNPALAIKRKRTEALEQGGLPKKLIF
Sequence (P51946 whole entry partner): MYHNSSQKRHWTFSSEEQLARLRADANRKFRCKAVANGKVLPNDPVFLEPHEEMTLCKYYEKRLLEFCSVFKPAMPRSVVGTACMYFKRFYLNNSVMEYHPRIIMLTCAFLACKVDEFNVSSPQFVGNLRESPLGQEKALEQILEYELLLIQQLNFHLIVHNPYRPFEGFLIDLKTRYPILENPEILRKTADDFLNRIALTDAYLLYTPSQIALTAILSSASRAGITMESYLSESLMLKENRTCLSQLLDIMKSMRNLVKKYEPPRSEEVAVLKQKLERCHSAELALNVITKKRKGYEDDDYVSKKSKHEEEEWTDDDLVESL
Sequence (P51948 whole entry partner): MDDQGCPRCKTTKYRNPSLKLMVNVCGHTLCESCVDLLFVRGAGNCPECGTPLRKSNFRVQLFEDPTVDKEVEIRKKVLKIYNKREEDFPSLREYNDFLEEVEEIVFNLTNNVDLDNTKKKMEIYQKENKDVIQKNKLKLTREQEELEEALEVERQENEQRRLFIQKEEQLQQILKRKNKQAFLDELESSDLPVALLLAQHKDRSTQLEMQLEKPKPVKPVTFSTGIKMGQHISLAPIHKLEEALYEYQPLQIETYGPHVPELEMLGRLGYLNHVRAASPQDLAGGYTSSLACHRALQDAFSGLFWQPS
assay.explanation: ADP-Glo Kinase Assay, CDK7/CyclinH/MAT1
Type: biochemical
particulars: read-out: % inhibition at 1 μM CDK7/CyclinH/MAT1
Method: Testing of the compounds described in this invention was carried out using the ADP-Glo™ Kinase Assay from Promega Corporation (Madison, Wis., USA). The ADP-Glo™ Kinase Assay is a luminescent ADP detection assay to measure kinase activity by quantifying the amount of ADP produced during a kinase reaction. The kinase assay is performed in kinase assay buffer (5 mM MOPS, pH 7.5, 5 mM MgCl2, 0.4 mM EDTA, 1.5 mM DTT). […]
recorded.metric: inhibition at 1 µM (%)

CCN(CC)c1nc2c(Br)c(Br)c(Br)c3c2n1CCC3 ... 0

A. Brc1c(Br)c2c3c(nc(N4CCNCC4)n3CCC2)c1I
B. CC1CN(c2nc3c(Br)c(Br)c(Br)c4c3n2CCC4)CCN1 (stereo not shown)
C. Brc1c(Br)c2c3c(nc(N4CCCCC4)n3CCC2)c1Br
D. OC1CCN(c2nc3c(Br)c(Br)c(Br)c4c3n2CCC4)CC1
*Q* Would you mind ranking these molecules by ascending inhibition at 1 µM? Answer by naming the labels in the order asked.
*A* A, D, C, B
(A: 0%, D: 3%, C: 11%, B: 16%)

* * *

target.entity: CDK7/CyclinH/MAT1 (Homo sapiens, UniProt P50613)
Construct: purchased Millipore, Billerica, Mass., USA
assay.explanation: ADP-Glo Kinase Assay, CDK7/CyclinH/MAT1
Assay type: biochemical
particulars: read-out: % inhibition at 1 μM CDK7/CyclinH/MAT1
Where a name gives a salt, the structure may show the parent alone.
recorded.metric: inhibition at 1 µM (%)

Solved entries:
O=[N+]([O-])c1c(Br)c(Br)c2c3c1nc(N1CCNCC1)n3CCC2 ... 0
NCCNc1nc2c(I)c(Br)c(Br)c3c2n1CCC3 ... 0

A. Cc1c(Br)c(Br)c2c3c1nc(C1CCNCC1)n3CCC2
B. CC1CCCN1c1nc2c(Br)c(Br)c(Br)c3c2n1CCC3 (stereo not drawn)
C. Brc1c(Br)c2c3c(nc(N4CCNCC4)n3CCC2)c1Br [Example 6, maleate]
*Q* Would you mind ranking these compounds by ascending inhibition at 1 µM? Answer by naming the labels in the order asked.
*A* A, C, B

* * *

target.entity: CDK8/CyclinC (Homo sapiens, UniProt P49336)
Construct: purchased ProQinase, Freiburg, Germany
Sequence (P49336 whole entry): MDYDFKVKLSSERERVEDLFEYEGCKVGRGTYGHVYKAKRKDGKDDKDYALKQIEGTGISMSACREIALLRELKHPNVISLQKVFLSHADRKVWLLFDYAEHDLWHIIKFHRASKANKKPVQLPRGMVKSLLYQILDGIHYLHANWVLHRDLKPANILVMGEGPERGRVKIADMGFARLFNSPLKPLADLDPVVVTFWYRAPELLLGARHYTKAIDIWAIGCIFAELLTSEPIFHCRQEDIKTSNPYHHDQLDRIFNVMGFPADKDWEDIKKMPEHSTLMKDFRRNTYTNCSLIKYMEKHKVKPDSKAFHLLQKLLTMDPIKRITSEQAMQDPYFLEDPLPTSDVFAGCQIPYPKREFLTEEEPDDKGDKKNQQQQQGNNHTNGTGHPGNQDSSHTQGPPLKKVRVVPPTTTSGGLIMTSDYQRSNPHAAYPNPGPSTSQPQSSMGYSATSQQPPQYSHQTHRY
Sequence (P24863 whole entry partner): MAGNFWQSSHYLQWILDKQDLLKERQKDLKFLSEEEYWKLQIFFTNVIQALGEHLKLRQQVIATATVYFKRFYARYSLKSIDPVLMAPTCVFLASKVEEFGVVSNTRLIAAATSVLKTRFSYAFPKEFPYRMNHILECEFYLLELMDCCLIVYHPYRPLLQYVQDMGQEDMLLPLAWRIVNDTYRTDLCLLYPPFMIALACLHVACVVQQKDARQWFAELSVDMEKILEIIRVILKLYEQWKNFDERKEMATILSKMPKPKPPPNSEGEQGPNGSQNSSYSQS
assay.explanation: ADP-Glo Kinase Assay, CDK8/CyclinC; note: ATP at apparent Km (53 µM)
Assay type: biochemical
particulars: read-out: % inhibition at 1 μM CDK8/CyclinC
Where a name gives a salt, the structure may show the parent alone.
recorded.metric: inhibition at 1 µM (%)

Cc1c(Br)c(Br)c2c3c1nc(N1CC[C@@H](N)C1)n3CCC2 ... 93
OCC1CCCN(c2nc3c(Br)c(Br)c(Br)c4c3n2CCC4)C1 (stereo not drawn) ... 92
CC1CNCCN1c1nc2c(Br)c(Br)c(Br)c3c2n1CCC3 (stereo not drawn) ... 89
COC1CCN(c2nc3c(Br)c(Br)c(Br)c4c3n2CCC4)CC1 ... 75
CC1CCc2c(Br)c(Br)c(Br)c3nc(N4CCNCC4)n1c23 (stereo not drawn) ... 90
Cc1c(Br)c(Br)c2c3c1nc(N1CCN[C@H](C)C1)n3CCC2 ... 82
N#Cc1c(Br)c(Br)c2c3c1nc(N1CCNCC1)n3CCC2 ... 90
Cc1c(Br)c(Br)c2c3c1nc(C1CCN(C)CC1)n3CCC2 [Example 7A, hydrochloride] ... 92
CCN(CC)c1nc2c(Br)c(Br)c(Br)c3c2n1CCC3 ... 85
O[C@@H]1CCN(c2nc3c(Br)c(Br)c(Br)c4c3n2CCC4)C1 ... 94
N[C@@H]1CCN(c2nc3c(Br)c(Br)c(Br)c4c3n2CCC4)C1 ... 97
Cc1c(Br)c(Br)c2c3c1nc(N1CCN(C)CC1)n3CCC2 ... 75
CN(C)C1CCN(c2nc3c(Br)c(Br)c(Br)c4c3n2CCC4)C1 (stereo not drawn) ... 76
Cc1c(Br)c(Br)c2c3c1nc(N1CCNC(C)C1)n3CCC2 (stereo not drawn) ... 76
Brc1c(Br)c2c3c(nc(NC4CCNC4)n3CCC2)c1Br (stereo not drawn) ... 81
